- Test system: MRP1 cells, doxorubicin viability shift, 10 uM compound
- Protocol summary: viability protection against doxorubicin, MRP-1 line – cell-based, doxorubicin EC50 shift, dose response (AID 844)
Reported property: fold increase in Dox EC50
Lab note: record just the number, no unit beside it.

Some solved cases for reference:
Cc1csc(C(C#N)C(=O)c2cc3ccccc3o2)n1 (stereo unspecified) ... 1.19
CC(OC(=O)c1snc(C(=O)NC2CCCCC2)c1N)C(=O)NC(C)(C)C (stereo unspecified) ... 1.1
O=c1oc(-c2cc3ccccc3o2)nc2sc3c(c12)CCCC3 ... 1.17
CCOc1ccc(NC(=O)Nc2cc(-c3ccccc3)sc2C(=O)OC)cc1 ... 0.62
CCOC(=O)C(C(=O)Nc1nc2ccccc2s1)C1CCCCC1 (stereo unspecified) ... 1

What does the data say about its fold increase in Dox EC50? Entry: Oc1c(C(c2cccs2)N2CCN(c3cccc(Cl)c3)CC2)sc2ncnn12 (stereo unspecified)
0.68

====

- Test system: MRP1 cells, doxorubicin viability shift, 10 uM compound
- Protocol summary: viability protection against doxorubicin, MRP-1 line – cell-based, doxorubicin EC50 shift, dose response (AID 844)
Reported property: fold increase in Dox EC50
Lab note: record just the number, no unit beside it.

Some solved cases for reference:
COc1ccc(Cn2c(O)c(C=Nc3ccc(OC)cc3)c3ccccc3c2=O)cc1 ... 1.34
Cc1cccc(NC(=O)Cn2c(=O)n(Cc3ccco3)c(=N)c3c4c(sc32)COC(C)(C)C4)c1 ... 0.81
CN1/C(=C\C(=O)c2oc3ccccc3c2N)C(C)(C)c2ccccc21 ... 0.7

What does the data say about its fold increase in Dox EC50? Entry: Cc1c(C(=O)OC2CCC(C)CC2)[nH]c2c1C(=O)CCC2 (configuration not stated)
0.93

What does the data say about its fold increase in Dox EC50? Entry: CCOC(=O)C1=C(C)N=c2s/c(=C\c3ccc(OC(C)=O)cc3)c(=O)n2C1/C=C/c1ccccc1 (configuration not stated)
0.34

What does the data say about its fold increase in Dox EC50? Entry: C/C(=N/NC(=O)CSc1ccccn1)c1ccc([N+](=O)[O-])cc1
0.77

What does the data say about its fold increase in Dox EC50? Entry: COc1ccc(C2CC(c3ccc(Cl)cc3Cl)Nc3nc(N)nn32)cc1OC (configuration not stated)
1.05

What does the data say about its fold increase in Dox EC50? Entry: CC(/C=C1\SC(=S)N(CCCC(=O)Nc2ccc(C(=O)O)cc2)C1=O)=C\c1ccccc1
0.55

What does the data say about its fold increase in Dox EC50? Entry: O=C(CSc1ncn[nH]1)NCCC(c1ccccc1)c1ccccc1
0.56

What does the data say about its fold increase in Dox EC50? Entry: c1ccc2c(c1)Nc1nccnc1S2
0.12

====

- Test system: MRP1 cells, doxorubicin viability shift, 10 uM compound
- Protocol summary: viability protection against doxorubicin, MRP-1 line – cell-based, doxorubicin EC50 shift, dose response (AID 844)
Active and inactive are the calls of the source. No rule for the calls is given here.
Reply using exactly one outcome from active, inactive

Cn1c(=O)c2c(nc(CN3CCOCC3)n2CCc2ccccc2)n(C)c1=O ... inactive
CCC(Sc1nccn1C)C(=O)Nc1nnc(C)s1 (configuration not stated) ... inactive
O=C(Cn1c(=O)oc2cc(S(=O)(=O)N3CCCC3)ccc21)NCc1ccccn1 ... inactive
Cc1ccc(C(=O)Nc2nnc(C)s2)o1 ... inactive
CC(/C=N\NC(=O)CN1CCN(S(=O)(=O)c2ccc(C)cc2)CC1)=C\c1ccccc1 ... inactive
O=C(Nc1ccc(N2CCCCC2)c(Cl)c1)c1ncn[nH]1 ... inactive
O=C1Cc2ccccc2C(=O)N1CCc1ccccc1 ... inactive
Cc1ccccc1Cn1nc(C)c(NC(=O)c2noc3c2CCc2ccccc2-3)c1C ... active
COc1ccc([N+](=O)[O-])cc1NC(=O)COC(=O)/C=C/c1ccco1 ... inactive
N#Cc1c(N)n(CCOC(=O)c2cccc(Br)c2)c2nc3ccccc3nc12 ... inactive

# outcome recorded in this test, key = Oc1c(C(c2ccccc2)N2CCc3ccccc3C2)sc2ncnn12 (configuration not stated)
inactive

# outcome recorded in this test, key = O=C(COc1ccc2oc3c(c2c1)CCCC3)Nc1ccccn1
inactive

# outcome recorded in this test, key = O=C1CC(N2CCN(c3nc4ccccc4s3)CC2)C(=O)N1c1ccc(F)cc1 (configuration not stated)
inactive

# outcome recorded in this test, key = Cc1cccc(Nc2nnc(SCC(=O)Nc3cccnc3Cl)s2)c1
inactive

# outcome recorded in this test, key = O=C1[C@@H]2C(Cc3ccc(O)cc3)NC3(C(=O)Nc4ccc(F)cc43)[C@@H]2C(=O)N1c1ccc(F)cc1 (some centres not stated)
inactive

# outcome recorded in this test, key = CCOc1ccc(NC(=O)N2CCC(n3c(=O)[nH]c4ccccc43)CC2)cc1
inactive
